Biological target: CDK6-CYCLIND3 (Homo sapiens, UniProt Q00534)
Construct: purchased Carna
Sequence (Q00534 whole entry): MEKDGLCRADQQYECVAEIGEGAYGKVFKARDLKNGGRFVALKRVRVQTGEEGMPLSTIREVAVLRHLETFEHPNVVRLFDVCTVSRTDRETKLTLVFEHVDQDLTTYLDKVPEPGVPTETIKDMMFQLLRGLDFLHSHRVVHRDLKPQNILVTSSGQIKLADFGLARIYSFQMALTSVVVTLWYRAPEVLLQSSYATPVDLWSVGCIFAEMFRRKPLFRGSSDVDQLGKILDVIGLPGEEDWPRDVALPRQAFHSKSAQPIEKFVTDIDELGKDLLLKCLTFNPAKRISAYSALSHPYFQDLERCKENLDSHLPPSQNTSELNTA
Sequence (P30281 whole entry partner): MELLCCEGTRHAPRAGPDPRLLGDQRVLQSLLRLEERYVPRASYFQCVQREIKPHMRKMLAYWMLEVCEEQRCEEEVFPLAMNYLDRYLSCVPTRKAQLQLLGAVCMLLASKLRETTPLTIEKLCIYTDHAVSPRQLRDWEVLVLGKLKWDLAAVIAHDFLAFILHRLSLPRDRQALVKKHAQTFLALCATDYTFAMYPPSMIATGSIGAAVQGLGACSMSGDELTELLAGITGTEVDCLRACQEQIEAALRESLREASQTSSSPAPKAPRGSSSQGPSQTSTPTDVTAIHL
Test: CDK inhibition assay (microfluidic LabChip, IC50 format)
Format: biochemical
Conditions: Table 4b, upper part; read-out: CDK6 IC50
pIC50: −log10 of the molar value.
Criterion: pIC50 meeting or surpassing 8. Met: MET. Not met: NOT MET.

[
  {
    "compound": "CN1C(=O)CC2(Cc3cnc(Nc4ccc(N5CCNCC5)c(F)c4)nc3N(C3CCCC3)C2=O)C1=O (stereo not shown) [Example D27]",
    "labelClass": "NOT MET"
  },
  {
    "compound": "Cc1cc(Nc2ncc3c(n2)N(C2CCCC2)C(=O)C2(CCNC2=O)C3)ccc1N1CCN(C(C)C)CC1 (stereo not shown) [Example D36]",
    "labelClass": "MET"
  },
  {
    "compound": "CN(C)[C@H]1CCN(C(=O)c2ccc(Nc3ncc4c(n3)N(C3CCCC3)C(=O)C3(CCNC3=O)C4)cc2F)C1 (stereo partly shown) [Example D48]",
    "labelClass": "MET"
  }
]

* * *

Reported IC50 values for a set of molecules
Target: CDK2-CYCLINA (Homo sapiens)
Construct: purchased Millipore
Assay: CDK inhibition assay (microfluidic LabChip, IC50 format)
Format: biochemical
Settings: Table 4b, lower part; read-out: CDK2 CyclinA IC50
metric: IC50

[
  {
    "molecule": "CCN1CCN(Cc2ccc(Nc3ncc4c(n3)N(C35CC(C3)C5)C(=O)[C@]3(CCNC3=O)C4)nc2)CC1 [Example D190]",
    "metric": "IC50",
    "result": "> 100 µM"
  },
  {
    "molecule": "CS(=O)(=O)c1ccc(Nc2ncc3c(n2)N(C2CCCC2)C(=O)[C@]2(CCNC2=O)C3)cc1 [Example D114]",
    "metric": "IC50",
    "result": "< 0.0032 µM"
  },
  {
    "molecule": "CC(C)N1CCN(c2ccc(Nc3ncc4c(n3)N(C35CC(C3)C5)C(=O)[C@]3(CCNC3=O)C4)nc2)CC1 [Example D189]",
    "metric": "IC50",
    "result": "> 100 µM"
  },
  {
    "molecule": "CN1CCN(c2ccc(Nc3ncc4c(n3)N(C35CC(C3)C5)C(=O)[C@]3(CCNC3=O)C4)nc2)CC1 [Example D188]",
    "metric": "IC50",
    "result": "> 100 µM"
  }
]

* * *

Biological target: CDK9-CYCLINT1 (Homo sapiens)
Construct: purchased Carna
Sequence (P50750 whole entry): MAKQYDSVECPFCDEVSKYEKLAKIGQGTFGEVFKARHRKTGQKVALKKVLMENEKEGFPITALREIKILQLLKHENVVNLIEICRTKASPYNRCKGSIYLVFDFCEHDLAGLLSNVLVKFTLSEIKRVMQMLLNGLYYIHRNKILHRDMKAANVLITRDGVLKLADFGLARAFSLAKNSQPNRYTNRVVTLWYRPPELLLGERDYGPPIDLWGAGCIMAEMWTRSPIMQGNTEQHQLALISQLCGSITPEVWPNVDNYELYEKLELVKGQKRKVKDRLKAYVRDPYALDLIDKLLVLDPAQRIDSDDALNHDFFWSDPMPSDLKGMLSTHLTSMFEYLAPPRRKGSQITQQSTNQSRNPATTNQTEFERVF
Sequence (O60563 whole entry partner): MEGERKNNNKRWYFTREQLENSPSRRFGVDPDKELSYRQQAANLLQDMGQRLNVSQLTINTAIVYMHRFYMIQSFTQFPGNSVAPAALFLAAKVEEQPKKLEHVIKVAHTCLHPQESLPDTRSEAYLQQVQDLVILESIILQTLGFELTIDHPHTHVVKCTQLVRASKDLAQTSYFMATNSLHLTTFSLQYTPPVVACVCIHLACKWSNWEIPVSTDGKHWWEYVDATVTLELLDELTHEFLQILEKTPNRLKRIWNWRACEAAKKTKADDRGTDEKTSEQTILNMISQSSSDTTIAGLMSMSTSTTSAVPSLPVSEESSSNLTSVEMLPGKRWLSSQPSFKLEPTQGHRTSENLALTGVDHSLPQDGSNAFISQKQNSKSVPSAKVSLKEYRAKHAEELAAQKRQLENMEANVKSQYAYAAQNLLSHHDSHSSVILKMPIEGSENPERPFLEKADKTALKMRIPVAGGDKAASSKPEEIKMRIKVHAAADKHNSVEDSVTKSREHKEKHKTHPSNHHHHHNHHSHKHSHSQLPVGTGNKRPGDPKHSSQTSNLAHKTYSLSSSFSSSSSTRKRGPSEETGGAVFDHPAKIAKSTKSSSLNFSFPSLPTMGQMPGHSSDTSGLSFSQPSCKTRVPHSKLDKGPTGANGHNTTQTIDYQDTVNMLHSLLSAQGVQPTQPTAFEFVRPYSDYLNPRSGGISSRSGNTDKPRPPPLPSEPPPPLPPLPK
Assay: CDK inhibition assay (microfluidic LabChip, IC50 format)
Format: biochemical
Conditions: Table 4a; read-out: CDK9 CyclinT1 IC50
metric: IC50 (nM)

[
  {
    "testSmiles": "CC(C)N1CCN(c2ccc(Nc3ncc4c(n3)N(C3CCCC3)C(=O)[C@]3(CCNC3=O)C4)cc2)CC1",
    "unitLabel": "nM",
    "modifierSign": "=",
    "result": 5.02
  },
  {
    "testSmiles": "COc1cc(N2CCN(C)CC2)ccc1Nc1ncc2c(n1)N(C1CCCC1)C(=O)[C@]1(CCNC1=O)C2",
    "unitLabel": "nM",
    "modifierSign": "=",
    "result": 307
  },
  {
    "testSmiles": "CCN1CCN(Cc2ccc(Nc3ncc4c(n3)N(C3CCCC3)C(=O)[C@]3(CCNC3=O)C4)nc2)CC1",
    "unitLabel": "nM",
    "modifierSign": "=",
    "result": 1180
  },
  {
    "testSmiles": "CN1CCN(c2ccc(Nc3ncc4c(n3)N(C3CCCC3)C(=O)[C@]3(CCNC3=O)C4)cn2)CC1",
    "unitLabel": "nM",
    "modifierSign": "=",
    "result": 6.86
  },
  {
    "testSmiles": "O=C1NCC[C@@]12Cc1cnc(Nc3ccc(N4CCNCC4)cc3F)nc1N(C1CCCC1)C2=O",
    "unitLabel": "nM",
    "modifierSign": "=",
    "result": 24.8
  },
  {
    "testSmiles": "O=C1NCC[C@@]12Cc1cnc(Nc3ccc(N4CC5(CNC5)C4)cc3)nc1N(C1CCCC1)C2=O",
    "unitLabel": "nM",
    "modifierSign": "=",
    "result": 4.81
  },
  {
    "testSmiles": "CN1CCN(c2ccc(Nc3ncc4c(n3)N(C3CCCC3)C(=O)N([C@H]3CCNC3)C4)cc2)CC1",
    "unitLabel": "nM",
    "modifierSign": ">",
    "result": 10000
  },
  {
    "testSmiles": "O=C1NCC[C@@]12Cc1cnc(Nc3ccc(-c4cn[nH]c4)cc3)nc1N(C1CCCC1)C2=O",
    "unitLabel": "nM",
    "modifierSign": "=",
    "result": 6.52
  },
  {
    "testSmiles": "CN1CCN(C2CCN(c3ccc(Nc4ncc5c(n4)N(C4CCCC4)C(=O)[C@]4(CCNC4=O)C5)cc3F)CC2)CC1",
    "unitLabel": "nM",
    "modifierSign": "<",
    "result": 3.2
  },
  {
    "testSmiles": "CN1CCN(c2ccc(Nc3ncc4c(n3)N(C3CCCC3)C(=O)N([C@@H]3CCNC3)C4)cc2)CC1",
    "unitLabel": "nM",
    "modifierSign": ">",
    "result": 10000
  }
]

* * *

Molecular target: CDK7 CyclinH (Homo sapiens)
Sequence (P50613 whole entry): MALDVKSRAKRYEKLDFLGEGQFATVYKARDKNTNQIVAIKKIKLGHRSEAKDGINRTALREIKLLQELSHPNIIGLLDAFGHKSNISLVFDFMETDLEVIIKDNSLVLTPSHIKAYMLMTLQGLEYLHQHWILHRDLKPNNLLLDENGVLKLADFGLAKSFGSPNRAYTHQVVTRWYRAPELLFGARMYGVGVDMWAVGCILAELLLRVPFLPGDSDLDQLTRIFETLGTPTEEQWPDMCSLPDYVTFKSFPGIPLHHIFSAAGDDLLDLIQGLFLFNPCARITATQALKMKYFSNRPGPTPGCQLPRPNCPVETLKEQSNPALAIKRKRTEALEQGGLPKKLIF
Sequence (P51946 whole entry partner): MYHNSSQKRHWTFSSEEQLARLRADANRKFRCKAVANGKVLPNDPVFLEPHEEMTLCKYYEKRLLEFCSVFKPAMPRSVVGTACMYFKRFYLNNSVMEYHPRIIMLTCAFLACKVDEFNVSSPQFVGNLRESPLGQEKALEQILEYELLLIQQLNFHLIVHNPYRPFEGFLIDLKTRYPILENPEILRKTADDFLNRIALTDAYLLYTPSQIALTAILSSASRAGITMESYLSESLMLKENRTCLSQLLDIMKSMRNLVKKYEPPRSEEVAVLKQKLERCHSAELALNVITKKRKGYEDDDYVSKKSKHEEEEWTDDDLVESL
Sequence (P51948 whole entry partner): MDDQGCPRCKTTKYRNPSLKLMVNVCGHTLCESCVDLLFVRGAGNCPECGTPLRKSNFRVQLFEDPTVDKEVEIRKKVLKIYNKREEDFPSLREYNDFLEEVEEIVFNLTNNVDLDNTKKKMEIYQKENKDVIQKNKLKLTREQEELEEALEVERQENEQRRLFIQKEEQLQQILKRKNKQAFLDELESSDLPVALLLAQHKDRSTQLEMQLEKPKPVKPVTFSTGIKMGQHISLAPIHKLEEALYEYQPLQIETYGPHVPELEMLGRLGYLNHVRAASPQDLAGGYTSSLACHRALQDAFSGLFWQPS
Assay: CDK inhibition assay (microfluidic LabChip, IC50 format)
Type: biochemical
Settings: Table 4a
Reported IC50 values for a set of compounds

[
  {
    "compound": "CC(C)n1cc(-c2ccc(Nc3ncc4c(n3)N(C3CCCC3)C(=O)[C@]3(CCNC3=O)C4)nc2)cn1 [Example D170]",
    "IC50": "> 100 µM"
  },
  {
    "compound": "CN1CCN(c2ccc(Nc3ncc4c(n3)N(C3CCCC3)C(=O)N(c3ccccc3F)C4)cc2F)CC1 [Example D80]",
    "IC50": "> 10 µM"
  },
  {
    "compound": "CC(C)N1CCN(c2ccc(Nc3ncc4c(n3)N(C3CCCC3)C(=O)[C@]3(CCNC3=O)C4)nc2)CC1 [Example D154]",
    "IC50": "13.5 µM"
  }
]

* * *

Biological target: CDK1/B (Homo sapiens)
Sequence (P06493 whole entry, species assumed): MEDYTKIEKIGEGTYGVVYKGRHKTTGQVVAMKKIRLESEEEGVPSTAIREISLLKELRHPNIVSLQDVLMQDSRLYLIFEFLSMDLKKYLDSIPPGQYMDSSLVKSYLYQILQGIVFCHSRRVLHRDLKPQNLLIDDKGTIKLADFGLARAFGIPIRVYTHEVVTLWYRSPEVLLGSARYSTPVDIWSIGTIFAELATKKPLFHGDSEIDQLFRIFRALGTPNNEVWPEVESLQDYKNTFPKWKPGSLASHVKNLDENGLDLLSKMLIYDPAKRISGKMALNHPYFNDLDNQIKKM
Sequence (P14635 whole entry partner, species assumed): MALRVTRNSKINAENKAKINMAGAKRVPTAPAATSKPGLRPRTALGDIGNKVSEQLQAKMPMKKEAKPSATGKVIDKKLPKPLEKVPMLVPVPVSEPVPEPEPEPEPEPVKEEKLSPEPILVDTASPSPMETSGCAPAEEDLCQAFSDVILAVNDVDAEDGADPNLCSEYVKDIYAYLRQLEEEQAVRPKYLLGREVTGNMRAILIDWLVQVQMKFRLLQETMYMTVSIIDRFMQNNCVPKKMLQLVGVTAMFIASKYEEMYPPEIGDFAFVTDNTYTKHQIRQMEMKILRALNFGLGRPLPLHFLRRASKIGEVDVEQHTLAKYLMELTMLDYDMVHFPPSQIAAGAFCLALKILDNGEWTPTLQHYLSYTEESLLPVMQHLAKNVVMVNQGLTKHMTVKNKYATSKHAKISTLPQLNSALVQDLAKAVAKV
Assay: CDK inhibition assay (microfluidic LabChip, IC50 format)
Assay type: biochemical
Conditions: Table 4b, lower part
Bucketed by reported IC50, buckets being low (below 200 nM), moderate (200 nM to below 1000 nM), high (1000 nM or more)

[
  {
    "compound": "CS(=O)(=O)N1CCC(Nc2ncc3c(n2)N(C24CC(C2)C4)C(=O)[C@]2(CCNC2=O)C3)CC1 [Example D123]",
    "labelClass": "low"
  },
  {
    "compound": "CC(C)N1CC2(CN(c3ccc(Nc4ncc5c(n4)N(C4CCCC4)C(=O)[C@]4(CCNC4=O)C5)cc3)C2)C1 [Example D102]",
    "labelClass": "moderate"
  },
  {
    "compound": "CC(C)c1ccc(Nc2ncc3c(n2)N(C2CCCC2)C(=O)[C@]2(CCNC2=O)C3)cc1F [Example D130]",
    "labelClass": "high"
  },
  {
    "compound": "CC(C)C1CCN(c2ccc(Nc3ncc4c(n3)N(C3CCCC3)C(=O)[C@]3(CCNC3=O)C4)cc2)CC1 [Example D201]",
    "labelClass": "high"
  },
  {
    "compound": "CC1CN(c2ccc(Nc3ncc4c(n3)N(C35CC(C3)C5)C(=O)[C@]3(CCNC3=O)C4)cc2)CC(C)N1 (stereo partly drawn) [Example D200]",
    "labelClass": "high"
  },
  {
    "compound": "O=C1NCC[C@@]12Cc1cnc(Nc3ccc(OCCO)cc3)nc1N(C1CCCC1)C2=O [Example D116]",
    "labelClass": "moderate"
  },
  {
    "compound": "O=C1NCC[C@@]12Cc1cnc(Nc3ccc(N4CCN(C5CC5)CC4)cc3)nc1N(C1CCCC1)C2=O [Example D202]",
    "labelClass": "moderate"
  },
  {
    "compound": "CS(=O)(=O)N1CCC(Nc2ncc3c(n2)N(C2CCCC2)C(=O)[C@]2(CCNC2=O)C3)CC1 [Example D117]",
    "labelClass": "low"
  },
  {
    "compound": "CC(C)N1CCC(Nc2ncc3c(n2)N(C2CCCC2)C(=O)[C@]2(CCNC2=O)C3)CC1 [Example D125]",
    "labelClass": "high"
  },
  {
    "compound": "CC1CN(c2ccc(Nc3ncc4c(n3)N(C3CCCC3)C(=O)[C@]3(CCNC3=O)C4)cc2)CC(C)N1 (stereo partly drawn) [Example D199]",
    "labelClass": "moderate"
  },
  {
    "compound": "CN1CC2(C1)CN(c1ccc(Nc3ncc4c(n3)N(C3CCCC3)C(=O)[C@]3(CCNC3=O)C4)cc1F)C2 [Example D101]",
    "labelClass": "low"
  }
]

Origin of measurements: patent US20230048132A1
